Reported TGI by item:
System: DU-145 prostate
protocol_details: NCI tumour cell line growth inhibition, 48 h
parameter_measured: TGI (µM)

C[C@H]1[C@H](C)CC[C@]2(COC(=O)CCC(=O)NCC#CCN3CCNCC3)CC[C@]3(C)C(=CC[C@@H]4[C@@]5(C)CCCNC(C)(C)[C@@H]5CC[C@]43C)[C@H]12    31.2
O=C(Nc1ccc(OCc2ccc(Cl)cc2)cc1)Nc1ccc(Cl)c(C(F)(F)F)c1    10.7
Cn1cc(-c2nc(N)nnc2-c2c[nH]c3ccc(F)cc23)c2cc(Br)cnc21    14.1

====

System: HL-60(TB) leukemia
protocol_details: NCI tumour cell line growth inhibition, 48 h
Reported TGI by item:
parameter_measured: TGI (µM)

COc1cc(C2C(C(=O)OCc3ccccc3)=C(C)Nc3nc4ccccc4n32)cc(OC)c1OC (centres undefined)    76.7
Cn1cc(-c2nc(N)nnc2-c2c[nH]c3ccc(F)cc23)c2cc(Br)cnc21    0.29
C[C@H]1[C@H](C)CC[C@]2(COC(=O)CCC(=O)NCC#CCN3CCNCC3)CC[C@]3(C)C(=CC[C@@H]4[C@@]5(C)CCCNC(C)(C)[C@@H]5CC[C@]43C)[C@H]12    27.1
